tested on: Bacillus subtilis DB104 (SP-AmyQ fusion secretion); assay: AmyQ secretion efficiency, weighted average sort bin (1 = best secretion, 10 = worst) (bin number (weighted average, 1-10)); higher = lower secretion efficiency
# cutoff 6 applies to AmyQ secretion efficiency; >= gives 1, < gives 0

item sequence: MNKLKRLSMLTVMIASVFIFSSHVLAAQY
target or system: Bacillus subtilis DB104 (SP-AmyQ fusion secretion)
label class: 0

item sequence: MKNMSCKLVVSVTLFFSFLTIGPLMHAQNS
target or system: Bacillus subtilis DB104 (SP-AmyQ fusion secretion)
label class: 0

item sequence: MRKTIFAFLTGLMMFGTITAISASPD
target or system: Bacillus subtilis DB104 (SP-AmyQ fusion secretion)
label class: 0

Is it the case that `MTKKAWFLPLVCVLLISGWLAPAASASLQTT` has AmyQ secretion efficiency reaching or exceeding 6?
0

Another sequence to check: `MKKWMITIAMLILAGIALFVFISPRKSHKT`
0

Let us now turn to `MKKAFILSAAAAVGLFTFGGVQQMSAKEL`
0

* * *

test system: Bacillus subtilis DB104 (SP-AmyQ fusion secretion); experiment: AmyQ secretion efficiency, weighted average sort bin (1 = best secretion, 10 = worst) (bin number (weighted average, 1-10)); higher = lower secretion efficiency
AmyQ secretion efficiency overview
# output: bare number, no unit

item sequence: MKRSIRTGTYCLLITLLTMGGMIASPASAAGT
target or system: Bacillus subtilis DB104 (SP-AmyQ fusion secretion)
AmyQ secretion efficiency: 3.22

Form entry - test system: Bacillus subtilis DB104 (SP-AmyQ fusion secretion); read-out: AmyQ secretion efficiency; sequence: `MRKKTKNRLISSVLSTVVISSLLFPGAAGASSP`
1.67

Another sequence to check: `MKKKRVMLALTAAAGLGLTALHSAPAAKAAPL`
2.47

Same thing, different sequence: `MIVSRQTRQRIIVFLSVIQPQPS`
6.7

* * *

# AmyQ secretion efficiency per record follows
tested on: Bacillus subtilis DB104 (SP-AmyQ fusion secretion); assay: AmyQ secretion efficiency, weighted average sort bin (1 = best secretion, 10 = worst) (bin number (weighted average, 1-10)); higher = lower secretion efficiency
Returns: the value as a bare number; no unit string appended.

Consider the reported AmyQ secretion efficiency for these sequences:
item sequence: MTKKAWFLPLVCVLLISGWLAASAQTT
AmyQ secretion efficiency: 6.17
--
item sequence: MNFKKTVVSALSISALALVSVSGVASAHEI
AmyQ secretion efficiency: 3.04
--
item sequence: MKKWIYVVLVLSIAGIGGFSGHAASS
AmyQ secretion efficiency: 5.88
--
item sequence: MKKAFILSAAAAVGLFTFTSVVGASAKEL
AmyQ secretion efficiency: 4.32
--
item sequence: MKKLCVMMLLFSAIASFPVSAQAKDQ
AmyQ secretion efficiency: 2.86
--
item sequence: MRKYTVIASILLSFLSVLFIVVVTSKAFPV
AmyQ secretion efficiency: 5.84
--
item sequence: MKLSVKIAGVLTVAAAAMTAKMYFTAKGN
AmyQ secretion efficiency: 7.66
--
item sequence: MKRFLIGAGVAAVILFSITFSGWFIADHQTHSQEM
AmyQ secretion efficiency: 5.28
--
item sequence: MKLWMRKTLVVLFTIVTFGLVSPPAAVMADKP
AmyQ secretion efficiency: 2.79
--
item sequence: MKSKWMSGLLLVAVGFSFTQVMVHAGRR
AmyQ secretion efficiency: 7.76

Which AmyQ secretion efficiency value is on record for `MKKVLMAFIICLSLILSVLAAPPSGAKMESV` ?
4.39

Please do the same for `MKKLILAGIALFVFISPLKSHKT` as well.
5.8

Then `MKKFLVALTMCGGLFVTPAKAVKT` ?
3.65

// query: `MNKFLKSNRFLLAAALGISLLASSNFIKASND`
4.66

Another: `MLKRTSFVSSLFISSAVLLLPSGQAHAQSA`
1.64

Lookup `MKLSVKIAGVLTVAAAAMTAKMYHTAKGN`
6.87

Please answer likewise for `MKLKKRVSMFLVALTMCGGLFVTVIIVAKAVKT`
6.35

Moving on to `MKLAKRVRRKRPSTTLAITAKAKEL`
6.87

And for `MRMLWRSKRLCGLALTLAPCAQAAEP` ?
6.7

What do we get for `MNKPTKLFSTLALAAGMTKRRAGGAGTIHAQQP` ?
5.85

Another: `MGKWYYVVLVLSIAGIGGFSVHAASS`
7.3

Could you do the same for `MMTMLFHSTLIVLLFFSFFGVQPIHAKKQ` , please?
2.1

Same thing, different sequence: `MKKRFSLIMMTGLLFGLTSPAFAAPK`
1.77

Query `MKKAAAVLLSLGLVFGFSYGAGHVWEAKTK` next
5.37

What about this sequence? `MKLKKRVSMFLVALTMCGGLFVRRAKAVKT`
7.34

Next sequence: `MKKKIIRFLLVSFVLFFALSTGITGVQAAPA`
2.57

Entry `MKKIITATTAVVLGSTLFAGAASAQSI` please
2.35

Can you handle `MRKSLITLGLASFTILVIGTSSFLIPFTSKTASAETL` next?
1.81

Param item: `MKSKGSIMKCQILFSFTITTFINTETISAFSN`
6.89

// next record `MKKKLAAGLTASAIVGTTLVVTPSEAATI`
3.77

Moving on to the next sequence: `MSMMSKLSLGVASAALGLALVGGGTWAAFN`
5.67

And then `MKKAAAVLLSLGLVFGFSYGAGHVNEAKTK` , what is it?
5.96

And the next one, `MKLRKVLTGSVLSLGLLVSASPAFATED` ?
2.67

Also `MKVPKTMLLSTAAGLLLSLRRKKRKVSAHYV` ?
6.33
